# MEASURED TARGET: T1, human CD3 epsilon (Acro Cat #CDE-H5223) (human, UniProt P07766 23-126)
# T1 construct: Bought recombinant protein; also called rhCD3E
# T1 sequence (P07766 23-126 limits assumed): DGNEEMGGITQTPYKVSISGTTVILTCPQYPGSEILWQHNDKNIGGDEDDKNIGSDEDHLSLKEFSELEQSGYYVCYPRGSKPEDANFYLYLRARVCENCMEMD
# TEST NAME: SPR (Biacore), antibody captured, human CD3 epsilon analyte
# reported koff; entries follow
Answer in s⁻¹, number only, no unit symbol.

Below are worked cases with known answers.
| BINDER | EXPERIMENTAL RESULT |
| --- | --- |
| 2037-B10_Hc-G105D (antibody, human IgG1, lambda, V domains shown, human IgG1, lambda; also called SRP 2037 G105D; 2037-B10_VH-G105D) VH: EVQLVESGGGLVKPGGSLRLSCAASGFTFNKYAMNWVRQAPGKGLEWVARIRTKYNNYATYYADSVKDRFTISRDDSKNTAYLQMNSLKTEDTAVYYCVRHGNFDNSYISYWAYWGQGTPVTVSS VL: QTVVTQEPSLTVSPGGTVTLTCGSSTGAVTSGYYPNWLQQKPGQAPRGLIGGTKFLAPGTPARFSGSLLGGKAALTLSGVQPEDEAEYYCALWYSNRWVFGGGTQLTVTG | 0.000207 |
| 2037-B10_Hc-K31D (antibody, human IgG1, lambda, V domains shown, human IgG1, lambda; also called SRP 2037 K31D; 2037-B10_VH-K31D) VH: EVQLVESGGGLVKPGGSLRLSCAASGFTFNDYAMNWVRQAPGKGLEWVARIRTKYNNYATYYADSVKDRFTISRDDSKNTAYLQMNSLKTEDTAVYYCVRHGNFGNSYISYWAYWGQGTPVTVSS VL: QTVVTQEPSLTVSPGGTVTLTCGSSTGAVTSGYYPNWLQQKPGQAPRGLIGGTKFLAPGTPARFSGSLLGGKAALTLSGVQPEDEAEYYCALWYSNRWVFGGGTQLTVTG | 0.000377 |
| 2037-B10_Hc-K54D (antibody, human IgG1, lambda, V domains shown, human IgG1, lambda; also called SRP 2037 K54D; 2037-B10_VH-K54D) VH: EVQLVESGGGLVKPGGSLRLSCAASGFTFNKYAMNWVRQAPGKGLEWVARIRTDYNNYATYYADSVKDRFTISRDDSKNTAYLQMNSLKTEDTAVYYCVRHGNFGNSYISYWAYWGQGTPVTVSS VL: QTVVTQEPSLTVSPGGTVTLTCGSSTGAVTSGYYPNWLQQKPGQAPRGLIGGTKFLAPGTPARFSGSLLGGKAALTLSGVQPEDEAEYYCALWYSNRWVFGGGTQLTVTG | 0.000289 |

Consider the binder 2037-B10_Hc-N103D (antibody, human IgG1, lambda, V domains shown, human IgG1, lambda; also called SRP 2037 N103D; 2037-B10_VH-N103D) VH: EVQLVESGGGLVKPGGSLRLSCAASGFTFNKYAMNWVRQAPGKGLEWVARIRTKYNNYATYYADSVKDRFTISRDDSKNTAYLQMNSLKTEDTAVYYCVRHGDFGNSYISYWAYWGQGTPVTVSS VL: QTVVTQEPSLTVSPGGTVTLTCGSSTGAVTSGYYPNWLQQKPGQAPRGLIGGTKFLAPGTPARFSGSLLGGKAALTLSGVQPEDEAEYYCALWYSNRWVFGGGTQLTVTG and give its measured koff. 0.000583

Consider the binder 2037-B10_Hc-Y61D (antibody, human IgG1, lambda, V domains shown, human IgG1, lambda; also called SRP 2037 Y61D; 2037-B10_VH-Y61D) VH: EVQLVESGGGLVKPGGSLRLSCAASGFTFNKYAMNWVRQAPGKGLEWVARIRTKYNNYATDYADSVKDRFTISRDDSKNTAYLQMNSLKTEDTAVYYCVRHGNFGNSYISYWAYWGQGTPVTVSS VL: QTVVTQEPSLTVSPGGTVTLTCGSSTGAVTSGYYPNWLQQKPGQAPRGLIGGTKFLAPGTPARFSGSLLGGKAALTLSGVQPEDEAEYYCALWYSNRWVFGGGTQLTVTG and give its measured koff. 0.000591

Consider the binder 2037-B10_Hc-S107D (antibody, human IgG1, lambda, V domains shown, human IgG1, lambda; also called SRP 2037 S107D; 2037-B10_VH-S107D) VH: EVQLVESGGGLVKPGGSLRLSCAASGFTFNKYAMNWVRQAPGKGLEWVARIRTKYNNYATYYADSVKDRFTISRDDSKNTAYLQMNSLKTEDTAVYYCVRHGNFGNDYISYWAYWGQGTPVTVSS VL: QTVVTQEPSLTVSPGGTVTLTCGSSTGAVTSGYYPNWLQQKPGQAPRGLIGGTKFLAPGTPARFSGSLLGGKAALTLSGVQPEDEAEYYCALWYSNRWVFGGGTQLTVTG and give its measured koff. 0.000215

Consider the binder 2037-B10_Hc-Y55D (antibody, human IgG1, lambda, V domains shown, human IgG1, lambda; also called SRP 2037 Y55D; 2037-B10_VH-Y55D) VH: EVQLVESGGGLVKPGGSLRLSCAASGFTFNKYAMNWVRQAPGKGLEWVARIRTKDNNYATYYADSVKDRFTISRDDSKNTAYLQMNSLKTEDTAVYYCVRHGNFGNSYISYWAYWGQGTPVTVSS VL: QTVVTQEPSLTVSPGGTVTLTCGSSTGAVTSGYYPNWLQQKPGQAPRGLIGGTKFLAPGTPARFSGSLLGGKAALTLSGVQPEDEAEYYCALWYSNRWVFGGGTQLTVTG and give its measured koff. 0.000372

Consider the binder 2037-B10_Hc-F104D (antibody, human IgG1, lambda, V domains shown, human IgG1, lambda; also called SRP 2037 F104D; 2037-B10_VH-F104D) VH: EVQLVESGGGLVKPGGSLRLSCAASGFTFNKYAMNWVRQAPGKGLEWVARIRTKYNNYATYYADSVKDRFTISRDDSKNTAYLQMNSLKTEDTAVYYCVRHGNDGNSYISYWAYWGQGTPVTVSS VL: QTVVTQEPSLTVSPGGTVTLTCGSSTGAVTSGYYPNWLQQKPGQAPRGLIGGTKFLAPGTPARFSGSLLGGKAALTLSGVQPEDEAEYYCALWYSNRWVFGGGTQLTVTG and give its measured koff. 0.000631

Consider the binder 2037-B10_Hc-Y108D (antibody, human IgG1, lambda, V domains shown, human IgG1, lambda; also called 2037-B10_VH-Y108D) VH: EVQLVESGGGLVKPGGSLRLSCAASGFTFNKYAMNWVRQAPGKGLEWVARIRTKYNNYATYYADSVKDRFTISRDDSKNTAYLQMNSLKTEDTAVYYCVRHGNFGNSDISYWAYWGQGTPVTVSS VL: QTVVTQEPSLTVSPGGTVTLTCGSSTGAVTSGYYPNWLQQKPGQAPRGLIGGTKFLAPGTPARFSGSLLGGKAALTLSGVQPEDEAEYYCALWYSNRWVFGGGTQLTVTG and give its measured koff. 0.00019

Consider the binder 2037-B10_Hc-N106D (antibody, human IgG1, lambda, V domains shown, human IgG1, lambda; also called SRP 2037 N106D; 2037-B10_VH-N106D) VH: EVQLVESGGGLVKPGGSLRLSCAASGFTFNKYAMNWVRQAPGKGLEWVARIRTKYNNYATYYADSVKDRFTISRDDSKNTAYLQMNSLKTEDTAVYYCVRHGNFGDSYISYWAYWGQGTPVTVSS VL: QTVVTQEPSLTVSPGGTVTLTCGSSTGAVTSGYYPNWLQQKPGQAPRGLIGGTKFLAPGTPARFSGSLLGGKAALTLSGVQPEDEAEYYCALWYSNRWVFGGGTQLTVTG and give its measured koff. 0.000277
